src = ChEMBL document CHEMBL5331119

- Test system: Plasmodium falciparum
- Assay Info: Antiplasmodial activity against Plasmodium falciparum 3D7
- Format: functional, organism-based
Quantity Name: EC50 (nM)

A. CCOC(=O)c1[nH]c(C)c(Cc2ccc(OCC)cc2)c1C
B. CCOC(=O)c1[nH]c(C)c(Cc2ccc(C(F)(F)F)nc2)c1C
C. CCOC(=O)c1[nH]c(C)c(Cc2ccc(C(F)(F)F)cc2)c1C
Lab note: EC50 ranking, ascending, for the listed compounds. Answer format: the labels, ordered as requested.
B, C, A
(B: 9 nM, C: 61 nM, A: 230 nM)

---

- System: Plasmodium falciparum
- Assay Info: Antiplasmodial activity against Plasmodium falciparum K1 assessed as inhibition of parasite growth by microdilution analysis
- Assay type: functional, organism-based
Entries and their pIC50 values follow.
A value of pIC50 is the negative decimal logarithm of a concentration given in moles per litre.

- Compound: "CCN(CC)CCCC(C)Cc1ccnc2cc(Cl)ccc12 (configuration not stated)"
  pIC50: 5.52

State its pIC50: CCN(CC)CCCC(C)Nc1cccc2cc(Cl)ccc12 (configuration not stated)
5.52
